- measurement target: UniProtKB P29275
- Sequence (whole entry): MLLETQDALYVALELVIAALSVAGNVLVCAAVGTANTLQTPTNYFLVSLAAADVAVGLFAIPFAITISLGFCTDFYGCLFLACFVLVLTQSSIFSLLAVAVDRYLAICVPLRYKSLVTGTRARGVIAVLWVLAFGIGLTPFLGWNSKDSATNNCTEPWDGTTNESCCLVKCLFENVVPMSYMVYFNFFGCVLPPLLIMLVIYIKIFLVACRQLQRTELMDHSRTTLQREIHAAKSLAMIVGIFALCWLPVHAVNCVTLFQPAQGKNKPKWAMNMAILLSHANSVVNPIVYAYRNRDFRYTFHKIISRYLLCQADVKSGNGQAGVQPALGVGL
- measurement notes: Displacement of [3H]DPCPX from human recombinant A2B receptor expressed in human HEK293 cell membranes at 1 uM incubated for 30 mins by radioligand binding competition assay relative to control
measured metric: inhibition
Field note: include the unit after the figure.

molecule: CC1=C(C(=O)OC(C(F)(F)F)C(F)(F)F)C(c2cccs2)NC(=O)N1 (racemic)
measurement target: UniProtKB P29275
inhibition: 1%
--
molecule: CC1=C(C(=O)OC(C(F)(F)F)C(F)(F)F)C(c2ccsc2)NC(=O)N1 (racemic)
measurement target: UniProtKB P29275
inhibition: 1%
--
molecule: CC(C)OC(=O)C1=C(C(F)(F)F)Nc2nc3ccccc3n2C1c1cccs1 (racemic)
measurement target: UniProtKB P29275
inhibition: 17%

QUERY: I am curious: what inhibition value has been reported for CCOC(=O)C1=C(C(F)(F)F)NC(=O)NC1c1cccs1 (racemic) ?
RESULT: 16%

QUERY: I am curious: what inhibition value has been reported for CC1=C(C(=O)OC(C)C(F)(F)F)C(c2cccs2)NC(=O)N1 (stereo in doubt; 14k-D1) ?
RESULT: 4%

QUERY: I am curious: what inhibition value has been reported for CC1=C(C(=O)OC(C(F)(F)F)C(F)(F)F)C(c2ccco2)NC(=O)N1 (racemic) ?
RESULT: 1%

QUERY: I am curious: what inhibition value has been reported for CC(C)OC(=O)C1=C(C(F)(F)F)Nc2nc3ccccc3n2C1c1ccco1 (racemic) ?
RESULT: 39%

QUERY: I am curious: what inhibition value has been reported for CC1=C(C(=O)OC(C(F)(F)F)C(F)(F)F)C(c2ccsc2)n2c(nc3ccccc32)N1 (racemic) ?
RESULT: 1%

QUERY: I am curious: what inhibition value has been reported for CC1=C(C(=O)OC(C(F)(F)F)C(F)(F)F)C(c2ccoc2)NC(=O)N1 (racemic) ?
RESULT: 2%

QUERY: I am curious: what inhibition value has been reported for CC1=C(C(=O)OC(C)C(F)(F)F)C(c2ccsc2)NC(=O)N1 (stereo in doubt; 14l-D2) ?
RESULT: 1%

QUERY: I am curious: what inhibition value has been reported for CCOC(=O)C1=C(C(F)(F)F)Nc2nc3ccccc3n2C1c1cccs1 (racemic) ?
RESULT: 38%

QUERY: I am curious: what inhibition value has been reported for CC1=C(C(=O)OCC(F)(F)F)C(c2cccs2)NC(=O)N1 (racemic) ?
RESULT: 1%

QUERY: I am curious: what inhibition value has been reported for CC1=C(C(=O)OCC(F)(F)F)C(c2ccsc2)NC(=O)N1 (racemic) ?
RESULT: 24%

QUERY: I am curious: what inhibition value has been reported for CC(C)OC(=O)C1=C(C(F)(F)F)NC(=O)NC1c1ccoc1 (racemic) ?
RESULT: 37%

QUERY: I am curious: what inhibition value has been reported for CC1=C(C(=O)OC(C(F)(F)F)C(F)(F)F)C(c2cccs2)n2c(nc3ccccc32)N1 (racemic) ?
RESULT: 7%

QUERY: I am curious: what inhibition value has been reported for CC(C)OC(=O)C1=C(C(F)(F)F)Nc2nc3ccccc3n2C1c1ccsc1 (racemic) ?
RESULT: 48%

QUERY: I am curious: what inhibition value has been reported for CC(C)OC(=O)C1=C(C(F)(F)F)NC(=O)NC1c1cccs1 (racemic) ?
RESULT: 19%

QUERY: I am curious: what inhibition value has been reported for CC1=C(C(=O)OCC(F)(F)F)C(c2ccsc2)n2c(nc3ccccc32)N1 (racemic) ?
RESULT: 30%

QUERY: I am curious: what inhibition value has been reported for CC1=C(C(=O)O[C@@H](C)C(F)(F)F)[C@H](c2ccco2)n2c(nc3ccccc32)N1 ?
RESULT: 35%

====

# Lookup of reported inhibition keyed by entry
- measurement target: Adenosine receptor A2b (Homo sapiens) (UniProt P29275)
- Sequence (whole entry): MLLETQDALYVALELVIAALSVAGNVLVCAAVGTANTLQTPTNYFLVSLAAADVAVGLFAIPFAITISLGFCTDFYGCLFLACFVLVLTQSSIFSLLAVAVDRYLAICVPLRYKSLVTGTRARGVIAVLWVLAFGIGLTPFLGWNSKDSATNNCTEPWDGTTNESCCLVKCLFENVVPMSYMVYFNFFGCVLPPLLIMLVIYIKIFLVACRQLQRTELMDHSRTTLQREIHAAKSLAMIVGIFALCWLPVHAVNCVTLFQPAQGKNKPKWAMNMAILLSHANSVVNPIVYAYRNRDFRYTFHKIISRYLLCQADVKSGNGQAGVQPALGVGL
- measurement notes: Displacement of [3H]DPCPX from human recombinant A2B receptor expressed in human HEK293 cell membranes at 1 uM incubated for 30 mins by radioligand binding competition assay relative to control

Illustrative cases are given below, each with its answer.
compound: CC1=C(C(=O)OC(C(F)(F)F)C(F)(F)F)C(c2ccoc2)n2c(nc3ccccc32)N1 (racemic)
measured metric: inhibition
observed: 21%
//
compound: CC1=C(C(=O)OC(C)C(F)(F)F)C(c2cccs2)n2c(nc3ccccc32)N1 (racemic)
measured metric: inhibition
observed: 27%

QUERY: I am curious: what inhibition value has been reported for CC1=C(C(=O)OC(C)C(F)(F)F)C(c2ccoc2)NC(=O)N1 (stereo in doubt; 14j-D2) ?
RESULT: 23%

QUERY: I am curious: what inhibition value has been reported for CC1=C(C(=O)OC(C)C(F)(F)F)C(c2cccs2)NC(=O)N1 (stereo in doubt; 14k-D2) ?
RESULT: 1%

QUERY: I am curious: what inhibition value has been reported for CC1=C(C(=O)OC(C)C(F)(F)F)C(c2ccsc2)n2c(nc3ccccc32)N1 (racemic) ?
RESULT: 47%

QUERY: I am curious: what inhibition value has been reported for CC1=C(C(=O)OCC(F)(F)F)C(c2cccs2)n2c(nc3ccccc32)N1 (racemic) ?
RESULT: 6%

QUERY: I am curious: what inhibition value has been reported for CC1=C(C(=O)OC(C(F)(F)F)C(F)(F)F)C(c2ccco2)n2c(nc3ccccc32)N1 (racemic) ?
RESULT: 16%

QUERY: I am curious: what inhibition value has been reported for CC1=C(C(=O)O[C@H](C)C(F)(F)F)[C@H](c2ccco2)n2c(nc3ccccc32)N1 ?
RESULT: 18%

====

- measurement target: Adenosine receptor A2b (Homo sapiens)
- measurement notes: Displacement of [3H]DPCPX from human recombinant A2B receptor expressed in human HEK293 cell membranes incubated for 30 mins by radioligand binding competition assay
One threshold, 600 nM, splits the recorded Ki values: lower ones are 1 (yes), equal or higher ones are 0 (no).

Reference set, count: 3
compound: CC1=C(C(=O)OCC(F)(F)F)C(c2ccoc2)n2c(nc3ccccc32)N1 (racemic)
discrete label: 1 (yes)
--
compound: CC1=C(C(=O)OC(C)C(F)(F)F)C(c2ccco2)NC(=O)N1 (stereo in doubt; 14i-D1)
discrete label: 1 (yes)
--
compound: CC(C)OC(=O)C1=C(C(F)(F)F)NC(=O)NC1c1ccsc1 (racemic)
discrete label: 0 (no)

QUERY: Input CCOC(=O)C1=C(C(F)(F)F)Nc2nc3ccccc3n2C1c1ccsc1 (racemic) ; condition: Ki strictly below 600 nM. Does it hold?
RESULT: 1 (yes)

QUERY: Input CC1=C(C(=O)OCC(F)(F)F)[C@@H](c2ccco2)n2c(nc3ccccc32)N1 ; condition: Ki strictly below 600 nM. Does it hold?
RESULT: 1 (yes)

QUERY: Input CC1=C(C(=O)OC(C)C(F)(F)F)C(c2ccoc2)NC(=O)N1 (stereo in doubt; 14j-D1) ; condition: Ki strictly below 600 nM. Does it hold?
RESULT: 1 (yes)

QUERY: Input CCOC(=O)C1=C(C(F)(F)F)Nc2nc3ccccc3n2C1c1ccco1 (racemic) ; condition: Ki strictly below 600 nM. Does it hold?
RESULT: 0 (no)

QUERY: Input CC1=C(C(=O)O[C@H](C)C(F)(F)F)C(c2ccco2)n2c(nc3ccccc32)N1 (mixture of isomers) ; condition: Ki strictly below 600 nM. Does it hold?
RESULT: 1 (yes)

QUERY: Input CCOC(=O)C1=C(C(F)(F)F)NC(=O)NC1c1ccsc1 (racemic) ; condition: Ki strictly below 600 nM. Does it hold?
RESULT: 1 (yes)
